assayed-target: T1, human neurotensin receptor type 1 (hNTS1R), endogenous in HT-29 colon carcinoma cells (human (endogenous in HT-29), UniProt P30989 1-418)
T1 construct: human neurotensin receptor type 1 (hNTS1R), endogenously expressed in HT-29 colon carcinoma cells; also called HT-29 cells; source: endogenous, intact HT-29 colon carcinoma cells
T1 sequence (P30989 whole entry): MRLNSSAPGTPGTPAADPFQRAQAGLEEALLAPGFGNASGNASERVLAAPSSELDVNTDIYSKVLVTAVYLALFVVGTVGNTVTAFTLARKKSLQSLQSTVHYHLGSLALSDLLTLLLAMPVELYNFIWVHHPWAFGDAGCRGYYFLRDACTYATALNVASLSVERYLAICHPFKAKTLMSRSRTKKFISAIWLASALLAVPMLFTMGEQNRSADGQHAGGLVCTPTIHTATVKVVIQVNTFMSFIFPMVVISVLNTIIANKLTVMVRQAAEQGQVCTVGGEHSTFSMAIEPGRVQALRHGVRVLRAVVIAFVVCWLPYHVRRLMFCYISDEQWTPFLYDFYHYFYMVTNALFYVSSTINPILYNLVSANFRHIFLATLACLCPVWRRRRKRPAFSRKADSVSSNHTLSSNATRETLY
experiment-notes: flow cytometry on cells; equilibrium saturation binding at intact suspended CHO-hNTS1R or HT-29 cells, 96-well plates, DPBS1, 23 ± 1 °C, homogeneous; unspecific binding with 1 μM NT(8–13)
assay-context: one partner purified
pKd: −log10 of the molar value.

binder: XPRRPYIL (N-terminus: 5-TAMRA attached through a 3-(1H-1,2,3-triazol-4-yl)propanoyl group; position 6 (X) = 2-(piperidin-4-yl)-Gly (pipGly); Arg8 = N^ω-[(4-(N-propanoyl)aminobutyl)aminocarbonyl]Arg) [5-TAMRA-labeled, propionylated NT(6–13) derivative 13 (UR-FE051)]
pKd: 9.60
